Tested on: NCI-H226 lung
Assay: NCI-60 one-dose screen, 48 h
Settings: 10 µM unless noted
Compounds without any hit were thinned out: in the full panel of roughly 83,000, 20% have a hit. The source made the active and inactive calls. Rule for the calls: active = growth percent below 10; inactive = the rest.
Just give me one of these, please: TRUE for active, FALSE for inactive

[[record]]
compound = "COc1cc(/C=C\\c2cc(/C=C\\c3ccc(O)c(OC)c3)n(C(=O)CNc3ccc(Cl)cc3)n2)ccc1O"
group = "FALSE"


What classification did CC(=O)N(Cc1ccccc1)c1nc2ccc(O)c(CN(C)C)c2s1 end up with in this test? FALSE

What classification did O=c1ccc2nc(C(F)(F)F)nn(-c3ccccc3)c-2c1 end up with in this test? FALSE

What classification did CCN1C(=O)N(CC)C2C1NN=C1SCC(=O)N12 (configuration not stated) end up with in this test? FALSE

What classification did Oc1c(CN2CCCC2)cc(COCc2ccccc2)c2cccnc12 end up with in this test? FALSE

What classification did Cn1ncc2ccc(-c3nc(-c4ccccc4)[nH]c3-c3n[nH]c(=O)n3C3CC3)cc21 end up with in this test? FALSE
